protocol: Determination of the uncaging quantum efficiency (Qu), 1-photon photolysis at 365 nm
Type: physicochemical
settings: Table 2.1
observable: Sensitivity Qu × ε (M⁻¹ cm⁻¹)
Express the result in M⁻¹ cm⁻¹ but write the number alone.

Prompt line: # return recorded Sensitivity Qu × ε for input COc1cc(CNC(C)=O)ccc1OCc1ccc2ccc(O)c(Br)c2n1
Response line: 486

###

protocol: Determination of the uncaging quantum efficiency (Qu), 1-photon photolysis at 365 nm
Format: physicochemical
settings: Table 1.1
observable: Sensitivity Qu × ε (M⁻¹ cm⁻¹)
Express the result in M⁻¹ cm⁻¹ but write the number alone.

Prompt line: # return recorded Sensitivity Qu × ε for input NCCc1c[nH]c2ccc(OCc3ccc4ccc(O)c(Br)c4n3)cc12
Response line: 600

Prompt line: # return recorded Sensitivity Qu × ε for input O=C(NCCc1c[nH]c2ccc(O)cc12)OCc1ccc2ccc(O)c(Br)c2n1
Response line: 210
